- measured.on: Replicase polyprotein 1ab (Severe acute respiratory syndrome coronavirus 2, UniProt P0DTD1)
- procedure.text: Inhibition of recombinant SARS-CoV-2 Main protease using TAMRA-SITSAVLQSGFRKMK-DABCYL-OH fluorogenic peptide as substrate preincubated or 30 mins followed by substrate addition by FRET assay
Answer each item with its documented IC50.

Identify measured IC50 associated with CC(C)(C)[C@H](NC(=O)Cc1ccccc1)C(=O)N1C[C@H]2[C@@H]([C@H]1C(=O)N[C@H](C#N)C[C@@H]1CCNC1=O)C2(C)C
< 100 nM

For the compound COc1cccc2[nH]c(C(=O)N3C[C@@H]4CCC[C@@H]4[C@H]3C(=O)N[C@@H](C[C@@H]3CCNC3=O)C(=O)CO)cc12 , give its reported IC50.
100 nM

Give me measured IC50, please, for this compound: CC(C)(C)[C@H](NC(=O)C1CCCCC1)C(=O)N1C[C@H]2[C@@H]([C@H]1C(=O)N[C@H](C#N)C[C@@H]1CCNC1=O)C2(C)C
< 100 nM

Note IC50 for the compound shown: CC1(C)[C@@H]2[C@@H](C(=O)N[C@H](C#N)C[C@@H]3CCNC3=O)N(C(=O)c3cc4c(OC(F)F)cccc4[nH]3)C[C@@H]21
100 nM

Look up and report measured IC50 for this entry: COc1cccc2[nH]c(C(=O)N3C[C@@H]4CCC[C@@H]4[C@H]3C(=O)N[C@@H](C[C@@H]3CCNC3=O)C(=O)C(=O)NC3CCCCC3)cc12
< 100 nM

Find the measured IC50 of CC(C)C(=O)N[C@H](C(=O)N1C[C@H]2[C@@H]([C@H]1C(=O)N[C@H](C#N)C[C@@H]1CCNC1=O)C2(C)C)C(C)(C)C and report it.
< 100 nM

# return recorded IC50 for entry CC(=O)N[C@H](C(=O)N1C[C@H]2[C@@H]([C@H]1C(=O)N[C@H](C#N)C[C@@H]1CCNC1=O)C2(C)C)C(C)(C)C
< 100 nM

// fetch IC50 given entry N#C[C@H](C[C@@H]1CCNC1=O)NC(=O)[C@@H]1CCCN1C(=O)c1cc2c(OC(F)F)cccc2[nH]1
> 1000 nM

Fill in IC50 for record COc1cccc2[nH]c(C(=O)N3C[C@@H]4CCC[C@@H]4[C@H]3C(=O)N[C@@H](C[C@@H]3CCNC3=O)C(=O)CCl)cc12
100 nM

Name the recorded IC50 of the compound listed here: COc1cccc2[nH]c(C(=O)N3C[C@@H]4CCC[C@@H]4[C@H]3C(=O)N[C@H](C=O)C[C@@H]3CCNC3=O)cc12
< 100 nM

Tell me measured IC50 for CCC(=O)N[C@H](C(=O)N1C[C@H]2[C@@H]([C@H]1C(=O)N[C@H](C#N)C[C@@H]1CCNC1=O)C2(C)C)C(C)(C)C please.
< 100 nM

Given the compound COc1cccc2[nH]c(C(=O)N3C[C@@H]4CCC[C@@H]4[C@H]3C(=O)N[C@@H](C[C@@H]3CCNC3=O)C(=O)COC(=O)c3c(Cl)cccc3Cl)cc12 , write its reported IC50.
< 100 nM

Note down IC50 recorded for CC(C)(C)C(=O)N[C@H](C(=O)N1C[C@H]2[C@@H]([C@H]1C(=O)N[C@H](C#N)C[C@@H]1CCNC1=O)C2(C)C)C(C)(C)C
< 100 nM
